test: NCI Yeast Anticancer Drug Screen. Data for the mec2-1 strain (AID 157); conditions: S. cerevisiae mec2-1 strain, at 50.0 µM (retest, dose inferred, filed as 5.0)
About 79,000 compounds went through this panel and 15% of them were active in at least one assay; those are over-represented in the sample as a whole. The source made the active and inactive calls. No stated cut-off is given here; in the data, active means growth inhibition above about 70%; inactive means the rest.
Valid outcomes are listed here; reply with one: active, inactive

Consider the following illustrative entries.
- compound: "CCOC(=O)C1CN(CCCCCCN2CC(C(=O)OCC)C(=O)C2=O)C(=O)C1=O (stereo not drawn)"
  labelClass: "inactive"
- compound: "CC1=CC(O)(c2nc3ccccc3s2)CC(C)(C)C1 (stereo not drawn)"
  labelClass: "inactive"
- compound: "CSc1ncc2c(n1)-c1ccccc1OC2NC1CC1 (stereo not drawn)"
  labelClass: "inactive"
- compound: "Cc1cc(N/N=C/c2ccc([N+](=O)[O-])o2)c2cc3c(cc2n1)OCO3"
  labelClass: "active"
- compound: "COc1ccccc1NC(=O)C1=C(C)NC(C)=C(C(=O)Nc2ccccc2OC)C1c1ccc(C2C(C(=O)Nc3ccccc3OC)=C(C)NC(C)=C2C(=O)Nc2ccccc2OC)cc1"
  labelClass: "active"
- compound: "O=C1N(Cc2ccccc2)CC1(c1ccccc1)C1CCCCC1O (stereo not drawn)"
  labelClass: "inactive"

**Query** What call does the record list for C(=NCCc1ccccc1)c1ccccc1B1OB(c2ccccc2C=NCCc2ccccc2)OB(c2ccccc2C=NCCc2ccccc2)O1 ?
**Result** active

**Query** What did this assay record as the result for c1cc[c]([Sn]([S]c2cccc3cccnc23)([c]2ccccc2)[c]2ccccc2)cc1 ?
**Result** active

**Query** Could you check what this test reported for Nc1ccc2c(c1)C(=O)c1ccccc1-2 ?
**Result** inactive

**Query** Kindly provide the recorded test outcome for the following compound: C1Cc2c3c4c(c5c2C(C1)CCC5)CCCC4CCC3
**Result** inactive

**Query** Look up the recorded call for CC(C)C(OC(=O)c1ccc(NCC2=CC(=O)C=CC2=O)cc1)C(C)C in this test.
**Result** inactive

====

assay: NCI Yeast Anticancer Drug Screen. Data for the bub3 strain (AID 167); conditions: S. cerevisiae bub3 mutant strain, at 5.0 µM (retest, dose inferred, filed as 0.5), hits give high values
Compounds without any hit were thinned out: in the full panel of roughly 79,000, 15% have a hit.
Kindly supply the reported growth inhibition values for the records listed here.
Numbers only, in %.

- compound: "Oc1ccc(C2SC(c3ccc(O)cc3)SC(c3ccc(O)cc3)S2)cc1 (stereo not given)"
  growth inhibition (%): 30

Record growth inhibition for all entries; do not skip any.
1. CC(C)(CN1CCCCC1)C(/C=C/c1ccc(Cl)c(Cl)c1)=N\NC(=O)N/N=C(/C=C/c1ccc(Cl)c(Cl)c1)C(C)(C)CN1CCCCC1
2. OC1CCC(COC(c2ccccc2)(c2ccccc2)c2ccccc2)O1 (stereo not given)

**Result**
39
4

Please report growth inhibition for every entry that follows.
1. CC(C)NC(=O)OCc1c2c(n(C)c1COC(=O)NC(C)C)-c1ccccc1CC2
2. CN(C)CCC(=O)N1C/C(=C\c2ccc(Cl)c(Cl)c2)C(=O)/C(=C/c2ccc(Cl)c(Cl)c2)C1

**Result**
[4, 99]

====

experiment: NCI Yeast Anticancer Drug Screen. Data for the mlh1 rad18 strain (AID 175); settings: S. cerevisiae mlh1 rad18 strain growth inhibition; at 50.0 µM (retest, dose inferred, filed as 5.0); hits give high values
Compounds without any hit were thinned out: in the full panel of roughly 79,000, 15% have a hit.
Label rule not met if growth inhibition falls below 70%; label rule met in every other case.

**Query** Is reported growth inhibition greater than or equal to 70% here: CCCCCCN(S(=O)(=O)c1ccc([N+](=O)[O-])cc1)S(=O)(=O)c1ccc([N+](=O)[O-])cc1
**Result** rule not met

**Query** Identify whether the reported growth inhibition of the following compound is 70% or greater: COc1ccc(C)c2nc3ccccc3nc12
**Result** rule not met

**Query** Does Cc1ccnc2sc3ccccc3c(=O)c12 have a reported growth inhibition of at least 70%?
**Result** rule met

**Query** I'd appreciate it if you could say whether Nc1ccc2nc(Nc3ccc(F)cc3)cnc2c1 has growth inhibition at least equal to 70%.
**Result** rule met

**Query** Reported growth inhibition reaches at least 70% for c1ccc2cc3nc4ccccc4nc3cc2c1 ?
**Result** rule not met

**Query** Decide: is the reported value of growth inhibition for C=CCOC(=O)C#CCCCC equal to or greater than 70%?
**Result** rule not met
